Biological target: IL-23 (human, p19/p40 heterodimer) (Homo sapiens) (UniProt Q9NPF7+P29460)
Sequence (Q9NPF7 20-189, chain 1 of 2): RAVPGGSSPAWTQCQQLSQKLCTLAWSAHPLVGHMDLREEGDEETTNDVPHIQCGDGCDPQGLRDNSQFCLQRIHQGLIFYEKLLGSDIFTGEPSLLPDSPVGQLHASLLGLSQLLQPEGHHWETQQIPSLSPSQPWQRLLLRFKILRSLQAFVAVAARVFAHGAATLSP
Sequence (P29460 23-328, chain 2 of 2): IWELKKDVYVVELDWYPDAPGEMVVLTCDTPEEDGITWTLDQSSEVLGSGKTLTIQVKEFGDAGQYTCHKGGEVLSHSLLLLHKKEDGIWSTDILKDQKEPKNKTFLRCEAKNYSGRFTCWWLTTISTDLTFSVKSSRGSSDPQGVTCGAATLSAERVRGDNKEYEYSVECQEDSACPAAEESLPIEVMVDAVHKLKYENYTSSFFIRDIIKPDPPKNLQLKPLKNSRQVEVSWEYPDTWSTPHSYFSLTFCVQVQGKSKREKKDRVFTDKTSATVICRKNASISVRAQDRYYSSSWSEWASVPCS
Test: filter
Conditions: deoxy A,G; 2'-OMe C,U; dI at G29,G30; 3'-idT [dI at 29,30 (G parent); 2'-OMe C/U at 2,6,10,13,14,21,23,27,32,34; other A,G deoxy; 3'-inverted dT at 35]; DPBS Ca Mg
Parameter: Kd (nM)

> print(dat)
                                   sequence  recorded.result
1  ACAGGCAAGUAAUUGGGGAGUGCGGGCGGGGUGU [ARC1616]              6.1

----------
Target: IL-23 (human, p19/p40 heterodimer) (Homo sapiens) (UniProt Q9NPF7+P29460)
Assay: filter
Settings: deoxy A,G; 2'-OMe C,U; dI at G26; 3'-idT [26]; DPBS Ca Mg
pKd: −log10 of the molar value.
Parameter: pKd

> print(dat)
                                   sequence  recorded.result
1  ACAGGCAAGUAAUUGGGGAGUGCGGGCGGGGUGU [ARC1607]             8.48
